# Test system: MCF-7 (human breast adenocarcinoma) cells
# ASSAY TEXT: MTT reduction assay, antiproliferative effect, MCF-7
# Format: cell-based
# CONDITION PARAMETERS: read-out: MCF-7 IC50; MTT, 72 h incubation
PROPERTY MEASURED: IC50 (µM)
Write the value in µM as a bare number.

Could you please provide reported IC50 for C(=NNc1nnc2c3ccccc3c3ccccc3c2n1)c1ccc[nH]1 ? Thanks!
4.7

====

Listed here: items and their measured melting point.

{"columns": ["STRUCTURE SMILES STRING", "PROPERTY MEASURED", "EXPERIMENTAL RESULT"],
 "data": [
  ["O=[N+]([O-])c1cccc(C=NNc2nnc3c4ccccc4c4ccccc4c3n2)c1", "melting point", "216 to 219 °C"],
  ["Oc1cccc(C=NNc2nnc3c4ccccc4c4ccccc4c3n2)c1", "melting point", "219 to 223 °C"],
  ["O=[N+]([O-])c1ccc(C=NNc2nnc3c4ccccc4c4ccccc4c3n2)cc1", "melting point", "240 to 244 °C"]
]}

Could you please provide reported melting point for C(=NNc1nnc2c3ccccc3c3ccccc3c2n1)c1cccs1 ? Thanks!
228 to 231 °C

Could you please provide reported melting point for C(=NNc1nnc2c3ccccc3c3ccccc3c2n1)c1ccc[nH]1 ? Thanks!
210 to 214 °C

Could you please provide reported melting point for Sc1nnc2c3ccccc3c3ccccc3c2n1 ? Thanks!
122 to 124 °C

Could you please provide reported melting point for O=[N+]([O-])c1ccccc1C=NNc1nnc2c3ccccc3c3ccccc3c2n1 ? Thanks!
225 to 229 °C

Could you please provide reported melting point for Oc1cccc(C=NNc2nnc3c4ccccc4c4ccccc4c3n2)c1O ? Thanks!
329 to 333 °C

Could you please provide reported melting point for COc1ccccc1C=NNc1nnc2c3ccccc3c3ccccc3c2n1 ? Thanks!
252 to 254 °C

Could you please provide reported melting point for C(=NNc1nnc2c3ccccc3c3ccccc3c2n1)c1ccccc1 ? Thanks!
286 to 290 °C

Could you please provide reported melting point for COc1ccc(C=NNc2nnc3c4ccccc4c4ccccc4c3n2)cc1 ? Thanks!
288 to 292 °C

Could you please provide reported melting point for Oc1ccccc1C=NNc1nnc2c3ccccc3c3ccccc3c2n1 ? Thanks!
328 to 332 °C

Could you please provide reported melting point for N#Cc1ccc(C=NNc2nnc3c4ccccc4c4ccccc4c3n2)cc1 ? Thanks!
231 to 234 °C

====

Listed here: items and their measured Percentage of cells in Sub G1.
# Test system: MCF-7 cells
# ASSAY TEXT: Cell cycle analysis, propidium iodide/RNase flow cytometric assay
# Type: cell-based, human
# CONDITION PARAMETERS: MCF-7, 10 µM, 48 h
Please give only the number in your answer, with no unit.

Study these solved cases before continuing.
{"columns": ["COMPOUND", "Percentage of cells in Sub G1"],
 "data": [
  ["O=[N+]([O-])c1ccccc1C=NNc1nnc2c3ccccc3c3ccccc3c2n1 [Compound 9g]", 1.35],
  ["C(=NNc1nnc2c3ccccc3c3ccccc3c2n1)c1cccs1 [Compound 9l]", 1.32],
  ["N#Cc1ccc(C=NNc2nnc3c4ccccc4c4ccccc4c3n2)cc1 [Compound 9j]", 1.08]
]}

Now look at this entry.
Give reported Percentage of cells in Sub G1 for C(=NNc1nnc2c3ccccc3c3ccccc3c2n1)c1ccc[nH]1 [Compound 9k] (MCF-7 cells)
1.31

====

# Tested on: HT-29 (human colorectal adenocarcinoma) cells
# ASSAY TEXT: MTT reduction assay, antiproliferative effect, HT-29
# Assay type: cell-based
# CONDITION PARAMETERS: Homo sapiens, HT-29; MTT, 72 h incubation; read-out: HT-29 IC50
PROPERTY MEASURED: pIC50
In plain terms, pIC50 is the concentration in mol/L turned into minus its base-10 logarithm.

Could you please provide reported pIC50 for COc1cccc2c1C(=O)c1c(O)c3c(c(O)c1C2=O)C[C@@](O)(C(=O)CO)C[C@@H]3O[C@H]1C[C@H](N)[C@H](O)[C@H](C)O1 [Doxorubicin, reference compound] ? Thanks!
6.39

====

# System: HT-29 (human colorectal adenocarcinoma) cells
# ASSAY TEXT: MTT reduction assay, antiproliferative effect, HT-29
# Type: cell-based
# CONDITION PARAMETERS: Homo sapiens, HT-29, 72 h, read-out: HT-29 IC50
PROPERTY MEASURED: IC50 (µM)
Write the value in µM as a bare number.

Study these solved cases before continuing.
{"columns": ["STRUCTURE SMILES STRING", "PROPERTY MEASURED", "UNITS OF MEASURE", "EXPERIMENTAL RESULT"],
 "data": [
  ["O=[N+]([O-])c1ccccc1C=NNc1nnc2c3ccccc3c3ccccc3c2n1", "IC50", "µM", 16.7],
  ["C(=NNc1nnc2c3ccccc3c3ccccc3c2n1)c1ccc[nH]1", "IC50", "µM", 14.3],
  ["O=[N+]([O-])c1ccc(C=NNc2nnc3c4ccccc4c4ccccc4c3n2)cc1", "IC50", "µM", 7.6],
  ["Oc1cccc(C=NNc2nnc3c4ccccc4c4ccccc4c3n2)c1", "IC50", "µM", 15.2],
  ["O=[N+]([O-])c1cccc(C=NNc2nnc3c4ccccc4c4ccccc4c3n2)c1", "IC50", "µM", 12.2],
  ["C(=NNc1nnc2c3ccccc3c3ccccc3c2n1)c1cccs1", "IC50", "µM", 12.9]
]}

Give reported IC50 for COc1ccccc1C=NNc1nnc2c3ccccc3c3ccccc3c2n1 (HT-29 (human colorectal adenocarcinoma) cells)
20.1

Give reported IC50 for N#Cc1ccc(C=NNc2nnc3c4ccccc4c4ccccc4c3n2)cc1 (HT-29 (human colorectal adenocarcinoma) cells)
15.3

====

# Tested on: MOLT-4 (lymphoblastic leukemia) cells
# ASSAY TEXT: MTT reduction assay, antiproliferative effect, MOLT-4
# Assay type: cell-based, human
# CONDITION PARAMETERS: Homo sapiens, MOLT-4, 72 h, read-out: MOLT-4 IC50
PROPERTY MEASURED: pIC50
In plain terms, pIC50 is the concentration in mol/L turned into minus its base-10 logarithm.

Study these solved cases before continuing.
{"columns": ["COMPOUND", "TEST TARGET", "pIC50"],
 "data": [
  ["Oc1cccc(C=NNc2nnc3c4ccccc4c4ccccc4c3n2)c1 [Compound 9e]", "MOLT-4 (lymphoblastic leukemia) cells", 5.36],
  ["C(=NNc1nnc2c3ccccc3c3ccccc3c2n1)c1cccs1 [Compound 9l]", "MOLT-4 (lymphoblastic leukemia) cells", 5.17],
  ["C(=NNc1nnc2c3ccccc3c3ccccc3c2n1)c1ccc[nH]1 [Compound 9k]", "MOLT-4 (lymphoblastic leukemia) cells", 5.77],
  ["O=[N+]([O-])c1cccc(C=NNc2nnc3c4ccccc4c4ccccc4c3n2)c1 [Compound 9h]", "MOLT-4 (lymphoblastic leukemia) cells", 5.41],
  ["O=[N+]([O-])c1ccc(C=NNc2nnc3c4ccccc4c4ccccc4c3n2)cc1 [Compound 9i]", "MOLT-4 (lymphoblastic leukemia) cells", 5.12],
  ["O=[N+]([O-])c1ccccc1C=NNc1nnc2c3ccccc3c3ccccc3c2n1 [Compound 9g]", "MOLT-4 (lymphoblastic leukemia) cells", 5.27],
  ["N#Cc1ccc(C=NNc2nnc3c4ccccc4c4ccccc4c3n2)cc1 [Compound 9j]", "MOLT-4 (lymphoblastic leukemia) cells", 5.26]
]}

Could you please provide reported pIC50 for COc1ccccc1C=NNc1nnc2c3ccccc3c3ccccc3c2n1 [Compound 9b] ? Thanks!
5.11

====

Listed here: items and their measured log10 IC50.
# Tested on: Vero (African green monkey kidney) cells
# ASSAY TEXT: MTT reduction assay, Vero normal cells
# Assay type: cell-based
# CONDITION PARAMETERS: Chlorocebus sabaeus, Vero, 72 h, read-out: Vero IC50
Could you please treat all values as log10 of IC50 in µM?

{"columns": ["COMPOUND", "log10 IC50"],
 "data": [
  ["O=[N+]([O-])c1cccc(C=NNc2nnc3c4ccccc4c4ccccc4c3n2)c1 [Compound 9h]", 1.29],
  ["O=[N+]([O-])c1ccc(C=NNc2nnc3c4ccccc4c4ccccc4c3n2)cc1 [Compound 9i]", 0.87],
  ["Oc1cccc(C=NNc2nnc3c4ccccc4c4ccccc4c3n2)c1 [Compound 9e]", 1.48],
  ["C(=NNc1nnc2c3ccccc3c3ccccc3c2n1)c1cccs1 [Compound 9l]", 0.79],
  ["C(=NNc1nnc2c3ccccc3c3ccccc3c2n1)c1ccc[nH]1 [Compound 9k]", 1.98]
]}

Give reported log10 IC50 for COc1ccccc1C=NNc1nnc2c3ccccc3c3ccccc3c2n1 [Compound 9b] (Vero (African green monkey kidney) cells)
1.11

Give reported log10 IC50 for N#Cc1ccc(C=NNc2nnc3c4ccccc4c4ccccc4c3n2)cc1 [Compound 9j] (Vero (African green monkey kidney) cells)
1.05

Give reported log10 IC50 for O=[N+]([O-])c1ccccc1C=NNc1nnc2c3ccccc3c3ccccc3c2n1 [Compound 9g] (Vero (African green monkey kidney) cells)
1.05
